# Assay Details: in vivo
# Measurement Parameters: male, NOD scid gamma (NSG), mouse, iv
# Method: All animal studies were performed under the approval of the University of Miami Institutional Animal Care and Use committee. […] For tumor-bearing experiments, DLBCL PDX DFBL-75549 tumor model was obtained and engrafted mice through surgical dorsal tumor implantation. Tumor volume (TV) was measured by ultrasound (Vevo 3100, Visualsonics) with a predetermined survival endpoint of TV>1500 mm3. A continuous body weight loss of >20% was also a predetermined survival endpoint. […]
Property Label: MTD (mg/kg)
Response body: numeric value in mg/kg, unit text excluded.

# compound COc1cccc2c1C(=O)c1c(O)c3c(c(O)c1C2=O)C[C@@](O)(C(=O)CO)C[C@@H]3O[C@H]1C[C@H](N)[C@H](O)[C@H](C)O1 ; its MTD = 3.3
